IC50 values for the compounds below.
# MEASURED TARGET: Heat shock protein HSP90 (Homo sapiens, UniProt P07900+P08238)
# EXPERIMENT DESCRIPTION: Inhibition of HSP90 ATPase activity (unknown origin)
# Assay type: protein assay
All answers are understood in nM, so give the number only.

See these solved cases before continuing.
| CHEMICAL STRUCTURE | IC50 (nM) |
| --- | --- |
| CCNC(=O)c1noc(-c2cc(C(C)C)c(O)cc2O)c1-c1cc[nH]n1 | 524 |
| CCNC(=O)c1noc(-c2cc(C(C)C)c(O)cc2O)c1-c1cc(CN2CCOCC2)no1 | 595 |
| CCNC(=O)c1noc(-c2cc(C(C)C)c(O)cc2O)c1-c1cc(CN(C)C)no1 | 490 |
| CCNC(=O)c1noc(-c2cc(C(C)C)c(O)cc2O)c1-c1ccn(C)n1 | 522 |

Reported IC50 for "CCNC(=O)c1noc(-c2cc(C(C)C)c(O)cc2O)c1-c1cc(CN2CCCC2)no1" : what is it?
686

Reported IC50 for "CCNC(=O)c1noc(-c2cc(C(C)C)c(O)cc2O)c1-c1cc(CNC)no1" : what is it?
436

Reported IC50 for "CCNC(=O)c1noc(-c2cc(C(C)C)c(O)cc2O)c1-c1cc(C(=O)N2CCSCC2)no1" : what is it?
566

Reported IC50 for "CCNC(=O)c1noc(-c2cc(C(C)C)c(O)cc2O)c1-c1cc(COS(C)(=O)=O)no1" : what is it?
476

Reported IC50 for "CCNC(=O)c1noc(-c2cc(C(C)C)c(O)cc2O)c1-c1cc(C(=O)OCC)no1" : what is it?
447

Reported IC50 for "CCNC(=O)c1noc(-c2cc(C(C)C)c(O)cc2O)c1-c1cc(CN(CC)CC)no1" : what is it?
468

Reported IC50 for "CCNCc1cc(-c2c(C(=O)NCC)noc2-c2cc(C(C)C)c(O)cc2O)on1" : what is it?
475

Reported IC50 for "CCNC(=O)c1noc(-c2cc(C(C)C)c(O)cc2O)c1-c1cc(CO)no1" : what is it?
279

Reported IC50 for "CCCNCc1cc(-c2c(C(=O)NCC)noc2-c2cc(C(C)C)c(O)cc2O)on1" : what is it?
465

Reported IC50 for "CCNC(=O)c1noc(-c2cc(C(C)C)c(O)cc2O)c1-c1cc(CN2CCSCC2)no1" : what is it?
440

Reported IC50 for "CCNC(=O)c1noc(-c2cc(C(C)C)c(O)cc2O)c1-c1cc(C(=O)NC)no1" : what is it?
489

Reported IC50 for "CCNC(=O)c1noc(-c2cc(C(C)C)c(O)cc2O)c1-c1cc(CNC(C)C)no1" : what is it?
521

Reported IC50 for "CCNC(=O)c1noc(-c2cc(C(C)C)c(O)cc2O)c1-c1cc(CNCCO)no1" : what is it?
975

Reported IC50 for "CCNC(=O)c1cc(-c2c(C(=O)NCC)noc2-c2cc(C(C)C)c(O)cc2O)on1" : what is it?
284

Reported IC50 for "CCNC(=O)c1noc(-c2cc(C(C)C)c(O)cc2O)c1-c1cc(CN2CCCCC2)no1" : what is it?
752

Reported IC50 for "CCCn1ccc(-c2c(C(=O)NCC)noc2-c2cc(C(C)C)c(O)cc2O)n1" : what is it?
584

Data provenance: ChEMBL document CHEMBL4627371
